Parameter hERG current change (%, negative = inhibition) at 10uM: see the listing below.
# system under test: human ether-à-go-go-related gene (hERG) potassium channel (human, UniProt Q12809);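 note: peak tail current of the secondary pulse compared with the same well before compound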
# Sequence (Q12809 whole entry, looked up): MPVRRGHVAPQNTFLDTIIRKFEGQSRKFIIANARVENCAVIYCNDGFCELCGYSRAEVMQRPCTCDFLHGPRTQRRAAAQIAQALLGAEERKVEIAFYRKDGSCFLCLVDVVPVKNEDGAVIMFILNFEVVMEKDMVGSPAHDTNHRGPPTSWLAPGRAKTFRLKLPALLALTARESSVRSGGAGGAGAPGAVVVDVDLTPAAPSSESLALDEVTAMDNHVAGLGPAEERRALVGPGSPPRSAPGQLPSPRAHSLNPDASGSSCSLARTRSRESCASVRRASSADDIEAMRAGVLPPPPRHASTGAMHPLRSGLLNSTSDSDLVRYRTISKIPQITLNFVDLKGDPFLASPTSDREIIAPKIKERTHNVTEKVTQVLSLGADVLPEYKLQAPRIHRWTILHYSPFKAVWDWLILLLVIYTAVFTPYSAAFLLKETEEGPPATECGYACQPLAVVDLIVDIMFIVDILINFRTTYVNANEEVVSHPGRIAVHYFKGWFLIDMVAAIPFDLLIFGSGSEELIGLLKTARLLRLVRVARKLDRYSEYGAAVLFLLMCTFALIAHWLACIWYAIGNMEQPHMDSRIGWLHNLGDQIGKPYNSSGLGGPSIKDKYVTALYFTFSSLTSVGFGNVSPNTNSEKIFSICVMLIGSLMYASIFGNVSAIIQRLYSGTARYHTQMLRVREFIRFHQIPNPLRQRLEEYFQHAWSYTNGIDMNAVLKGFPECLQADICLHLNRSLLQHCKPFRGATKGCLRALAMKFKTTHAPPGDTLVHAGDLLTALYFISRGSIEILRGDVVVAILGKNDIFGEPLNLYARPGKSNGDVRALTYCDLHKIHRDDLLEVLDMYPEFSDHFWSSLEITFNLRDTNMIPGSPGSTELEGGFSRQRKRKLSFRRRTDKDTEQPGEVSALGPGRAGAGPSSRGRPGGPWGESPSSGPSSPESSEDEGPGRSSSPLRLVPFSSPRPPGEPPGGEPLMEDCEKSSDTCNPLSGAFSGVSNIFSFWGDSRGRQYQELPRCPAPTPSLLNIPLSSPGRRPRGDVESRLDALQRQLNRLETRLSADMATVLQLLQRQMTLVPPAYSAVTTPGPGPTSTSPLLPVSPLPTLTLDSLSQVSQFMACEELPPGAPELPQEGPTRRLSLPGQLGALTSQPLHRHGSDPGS
# measurement description: primary screen, population patch clamp on CHO cells stably expressing hERG; higher = less effect of the substance
# Procedure: Briefly, Chinese hamster ovary (CHO) cells stably expressing the hERG channel were dislodged from tissue culture flasks and dispensed into PPC plates. […] During the recording, background leak currents were estimated by a 100 ms step to -80 mV from an initial holding potential of -70 mV and subtracted from the subsequent current measurement. The campaign was conducted in two phases using slight differences in recording protocol. […]
The whole screen tested about 310,000 compounds, of which about 14,000 (4.5%) showed an effect of 50% or more. Effects have a minus sign here. For the sample, strong results were picked, then their nearest neighbours and some compounds at random.
assay endpoint: hERG current change (%, negative = inhibition) at 10uM (%)

compound	system under test	value units	reported result
O=C(NCc1ccco1)/C(=C/c1ccc(Br)cc1)NC(=O)c1ccco1	human ether-à-go-go-related gene (hERG) potassium channel (human, UniProt Q12809)	%	0.657
CCCNS(=O)(=O)c1ccc(OCC(=O)N2CCc3ccccc3C2)c(C)c1	human ether-à-go-go-related gene (hERG) potassium channel (human, UniProt Q12809)	%	-65.9
COCc1c(C(=O)N/N=C(\C)c2ccncc2)nnn1-c1nonc1N	human ether-à-go-go-related gene (hERG) potassium channel (human, UniProt Q12809)	%	7.11
CCOc1ccc(-c2noc(-c3cccnc3)n2)cc1OCC	human ether-à-go-go-related gene (hERG) potassium channel (human, UniProt Q12809)	%	13.7
COc1ccc2ccccc2c1CNC(C)CCc1ccccc1.O=C(O)C(=O)O (stereo not drawn)	human ether-à-go-go-related gene (hERG) potassium channel (human, UniProt Q12809)	%	-77.8
CC1Cc2ccccc2N1c1ncnc2nc[nH]c12 (stereo not drawn)	human ether-à-go-go-related gene (hERG) potassium channel (human, UniProt Q12809)	%	-6.58
CC(=O)Oc1ccc(/C=C(\NC(=O)c2ccco2)C(=O)NCc2ccccc2)cc1	human ether-à-go-go-related gene (hERG) potassium channel (human, UniProt Q12809)	%	-68.3
O=C(C[n+]1ccn(CCCNP2(=O)C=C(c3ccccc3)OC(c3ccccc3)=C2)c1)c1cccs1.[Br-]	human ether-à-go-go-related gene (hERG) potassium channel (human, UniProt Q12809)	%	-44.7
Cc1ccc(NS(=O)(=O)c2cccs2)c(C)c1	human ether-à-go-go-related gene (hERG) potassium channel (human, UniProt Q12809)	%	-2.42
CCOc1ccc(NC(=O)CN2CC(c3ccccc3)CC2=O)cc1 (stereo not drawn)	human ether-à-go-go-related gene (hERG) potassium channel (human, UniProt Q12809)	%	-19.9
COc1ccc(N2CCN(CCC3Oc4cc([N+](=O)[O-])ccc4NC3=O)CC2)cc1 (stereo not drawn)	human ether-à-go-go-related gene (hERG) potassium channel (human, UniProt Q12809)	%	-19.1
COc1ccc(/C=C(\NC(=O)c2ccco2)C(=O)NCc2ccco2)cc1	human ether-à-go-go-related gene (hERG) potassium channel (human, UniProt Q12809)	%	8.89
CC(=O)Oc1ccc(/C=C(\NC(=O)c2ccco2)C(=O)Nc2ccc(C(C)=O)cc2)cc1	human ether-à-go-go-related gene (hERG) potassium channel (human, UniProt Q12809)	%	-26.2
Cc1ccnc(SCC(=O)c2ccc(Br)s2)n1	human ether-à-go-go-related gene (hERG) potassium channel (human, UniProt Q12809)	%	3.59
CCN(CC)Cc1c(C(=O)N/N=C/c2ccncc2)nnn1-c1nonc1N	human ether-à-go-go-related gene (hERG) potassium channel (human, UniProt Q12809)	%	-55.9
CCOc1cccc(-c2c(C(=O)N/N=C/c3ccncc3)nnn2-c2nonc2N)c1	human ether-à-go-go-related gene (hERG) potassium channel (human, UniProt Q12809)	%	-9.65
O=C(O)CCN1CCc2ccccc21	human ether-à-go-go-related gene (hERG) potassium channel (human, UniProt Q12809)	%	9.02
O=P1(NCCCn2cc[n+](Cc3nc4ccccc4[nH]3)c2)C=C(c2ccccc2)OC(c2ccccc2)=C1.[Cl-]	human ether-à-go-go-related gene (hERG) potassium channel (human, UniProt Q12809)	%	-63
Cc1cc2cc3c(cc2nc1SCc1ccccn1)OCCO3	human ether-à-go-go-related gene (hERG) potassium channel (human, UniProt Q12809)	%	5.43
CC(=O)Oc1ccc(/C=C(\NC(=O)c2ccco2)C(=O)NCc2ccco2)cc1	human ether-à-go-go-related gene (hERG) potassium channel (human, UniProt Q12809)	%	-52
Cc1[nH]nc(-c2ccc(OCc3cnn(-c4ccccc4)c3)c(C)c2O)c1Oc1ccccc1	human ether-à-go-go-related gene (hERG) potassium channel (human, UniProt Q12809)	%	12
COc1ccc(OCc2cccc(C(=O)Nn3cc([N+](=O)[O-])cn3)c2)cc1	human ether-à-go-go-related gene (hERG) potassium channel (human, UniProt Q12809)	%	-15.6
CCCNS(=O)(=O)c1ccc(OCC(=O)N2CCN(Cc3ccc4c(c3)OCO4)CC2)cc1	human ether-à-go-go-related gene (hERG) potassium channel (human, UniProt Q12809)	%	-32
CCCN(CCC)Cc1c(C(=O)N/N=C/c2ccncc2)nnn1-c1nonc1N	human ether-à-go-go-related gene (hERG) potassium channel (human, UniProt Q12809)	%	-64.1
Cc1ccc(OCC(=O)N2CCc3ccccc3C2)c(C)c1	human ether-à-go-go-related gene (hERG) potassium channel (human, UniProt Q12809)	%	-16.1
COc1cccc(OCC(=O)N2CCN(C)CC2)c1	human ether-à-go-go-related gene (hERG) potassium channel (human, UniProt Q12809)	%	-10.1
O=C(COC(=O)C1CC1)Nc1nc(-c2ccc(F)c(F)c2)cs1	human ether-à-go-go-related gene (hERG) potassium channel (human, UniProt Q12809)	%	4.93
CCCc1c(C(=O)N/N=C(/C)c2ccncc2)nnn1-c1nonc1N	human ether-à-go-go-related gene (hERG) potassium channel (human, UniProt Q12809)	%	0.629
CCOc1ncccc1C(=O)Nc1cccc(-c2nnc3n2CCCCC3)c1	human ether-à-go-go-related gene (hERG) potassium channel (human, UniProt Q12809)	%	-19.6
O=C(NCc1ccc(F)cc1)N[C@@H](Cc1ccccc1)C(=O)O	human ether-à-go-go-related gene (hERG) potassium channel (human, UniProt Q12809)	%	7.44
CCOc1cccc(-c2c(C(=O)N/N=C/c3cccnc3)nnn2-c2nonc2N)c1	human ether-à-go-go-related gene (hERG) potassium channel (human, UniProt Q12809)	%	-54
Cc1cc(S(=O)(=O)NC(C)C)ccc1OCC(=O)N1CCN(Cc2ccc3c(c2)OCO3)CC1	human ether-à-go-go-related gene (hERG) potassium channel (human, UniProt Q12809)	%	-27.6
Cc1ccc2c(C)c(C(=O)Nc3ccc(S(N)(=O)=O)cc3)oc2c1C	human ether-à-go-go-related gene (hERG) potassium channel (human, UniProt Q12809)	%	31.2
O=S(=O)(Nc1nc2ccc(S(=O)(=O)N3CCCC3)cc2s1)c1ccc(F)cc1	human ether-à-go-go-related gene (hERG) potassium channel (human, UniProt Q12809)	%	-2.68
O=C(COC(=O)c1ccc(Cl)c(S(=O)(=O)N2CCCC2)c1)NCc1cccs1	human ether-à-go-go-related gene (hERG) potassium channel (human, UniProt Q12809)	%	-39.8
COCCNS(=O)(=O)c1ccc(OCC(=O)N2CCc3ccccc3C2)c(Cl)c1	human ether-à-go-go-related gene (hERG) potassium channel (human, UniProt Q12809)	%	-43.5
COC(=O)CCC(=O)OC1(C)C(=O)C=C2C=C(C3CC3)N(CCCCO)C=C2C1=O (stereo not drawn)	human ether-à-go-go-related gene (hERG) potassium channel (human, UniProt Q12809)	%	4.26
CCCn1c(N)c(N(CCOC)C(=O)c2ccc(N(C)S(=O)(=O)c3ccc(C)cc3)cc2)c(=O)[nH]c1=O	human ether-à-go-go-related gene (hERG) potassium channel (human, UniProt Q12809)	%	7.32
Fc1ccc(Cn2nnnc2CN2CCN(C3CCCCC3)CC2)cc1	human ether-à-go-go-related gene (hERG) potassium channel (human, UniProt Q12809)	%	-45.4
